Origin of values: patent US20260085053A1

Biological target: SIK1 kinase (aa1-303, Thermo Fisher) (Homo sapiens)
Construct: SIK1 kinase (aa1-303, Thermo Fisher); purchased Thermo Fisher
Assay: Biochemical activities determination for SIK1 protein (TR-FRET)
Details: 110 uM ATP, 0.5 μM STK1 substrate
Method: 1. Biochemical Activities Determination for SIK1 Protein Compounds were tested for inhibition of SIK1 kinase (aa1-303, Thermo Fisher) in assays based on the time-resolved fluorescence-resonance energy transfer (TR-FRET) methodology. […] Plates were sealed and incubated at room temperature for overnight, and the TR-FRET signals (ratio of fluorescence emission at 665 nm over emission at 620 nm with excitation at 337 nm wavelength) were recorded on a PHERAstar FS plate reader (BMG Labtech). […]
recorded endpoint: IC50 (nM)

Worked cases, answers included:
- molecule: "N#CCCN1CC(n2cc(-c3ccc4c(-c5cc6c(c(OC(F)F)c5)C(=O)N(CC(F)(F)F)CC6)coc4c3)cn2)C1"
  target entity: "SIK1 kinase (aa1-303, Thermo Fisher) (Homo sapiens)"
  unit descriptor: "nM"
  IC50: 560
- molecule: "COc1cc(-c2coc3cc(-c4cnn(C)c4)ccc23)cc(OC)c1-c1nnc(C)o1"
  target entity: "SIK1 kinase (aa1-303, Thermo Fisher) (Homo sapiens)"
  unit descriptor: "nM"
  IC50: 2680
- molecule: "Cn1cc(-c2ccc3c(-c4ccc(C#N)cc4)coc3c2)cn1"
  target entity: "SIK1 kinase (aa1-303, Thermo Fisher) (Homo sapiens)"
  unit descriptor: "nM"
  IC50: 1880

[I] COc1cc(-c2coc3cc(-c4cnn(C5CCN(C)C5)c4)ccc23)cc(OC(F)F)c1C(=O)N[C@@H]1C[C@@H]1F (stereo partly drawn)
[II] COc1cc(-c2coc3cc(OCCN4CCN(C)CC4)ccc23)cc(OC(F)F)c1C(=O)N[C@@H]1C[C@@H]1F
[III] COc1cc(-c2coc3cc(OCCN4CC[C@H](C)C4)ccc23)cc(OC(F)F)c1C(=O)N[C@@H]1C[C@@H]1F
[IV] COc1cc(-c2coc3cc(-c4cn(C)nc4F)ccc23)cc2c1C(=O)N(CC(F)(F)F)CC2
// query # ascending order, key=IC50 List the labels in the requested order.
// result I, II, III, IV

* * *

Biological target: SIK1 kinase (aa1-303, Thermo Fisher) (Homo sapiens, UniProt P57059)
Construct: SIK1 kinase (aa1-303, Thermo Fisher); purchased Thermo Fisher
Sequence (P57059 1-303): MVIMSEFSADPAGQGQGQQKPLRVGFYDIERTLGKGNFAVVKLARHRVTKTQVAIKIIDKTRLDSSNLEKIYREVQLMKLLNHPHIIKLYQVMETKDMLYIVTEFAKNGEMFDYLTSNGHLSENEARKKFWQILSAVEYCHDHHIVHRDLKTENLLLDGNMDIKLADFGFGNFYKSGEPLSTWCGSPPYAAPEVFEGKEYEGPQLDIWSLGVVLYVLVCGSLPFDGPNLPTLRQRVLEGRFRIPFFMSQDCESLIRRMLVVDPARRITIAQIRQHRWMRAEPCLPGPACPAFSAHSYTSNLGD
Assay: Biochemical activities determination for SIK1 protein (TR-FRET)
Conditions: 110 uM ATP, 0.5 μM STK1 substrate
Description: 1. Biochemical Activities Determination for SIK1 Protein Compounds were tested for inhibition of SIK1 kinase (aa1-303, Thermo Fisher) in assays based on the time-resolved fluorescence-resonance energy transfer (TR-FRET) methodology. […] Plates were sealed and incubated at room temperature for overnight, and the TR-FRET signals (ratio of fluorescence emission at 665 nm over emission at 620 nm with excitation at 337 nm wavelength) were recorded on a PHERAstar FS plate reader (BMG Labtech). […]
recorded endpoint: IC50 (nM)

- compound: "COc1cc(-c2coc3cc(-c4cn(C)nn4)ccc23)cc2c1C(=O)N(CC(F)(F)F)CC2"
  unit descriptor: "nM"
  IC50: 2310
- compound: "Cn1cc(-c2ccc3c(-c4cc5c(c(OC(F)F)c4)C(=O)N(CC(F)(F)F)CC5)coc3c2)cn1"
  unit descriptor: "nM"
  IC50: 647
- compound: "COc1cc(-c2coc3cc(OCCN4CCCC4)ccc23)cc(OC(F)F)c1C(=O)NC1CCCCC1N (racemic)"
  unit descriptor: "nM"
  IC50: 1220

[a] Cn1cc(-c2ccc3c(-c4cc5c(c(OC(F)F)c4)C(=O)N(CC#N)CC5)coc3c2)cn1
[b] COc1cc(-c2coc3cc(-c4cnn(C)c4)ccc23)cc2c1C(=O)N(Cc1ccccc1)CC2
// query Identify the item whose IC50 is the smaller number: a or b Write down the label attached to your selection.
// result a
(a: 289 nM, b: 5450 nM)

* * *

target: SIK1 kinase (aa1-303, Thermo Fisher) (Homo sapiens, UniProt P57059); construct: SIK1 kinase (aa1-303, Thermo Fisher); purchased Thermo Fisher; experiment: Biochemical activities determination for SIK1 protein (TR-FRET); settings: 110 uM ATP, 0.5 μM STK1 substrate
recorded endpoint: IC50 (nM)

[I] COc1cc(-c2coc3cc(-c4cnn(C5CC5)c4)ccc23)cc2c1C(=O)N(CC(F)(F)F)CC2
[II] CN1CCC(n2cc(-c3ccc4c(-c5cc6c(c(OC(F)F)c5)C(=O)N(CC#N)CC6)coc4c3)cn2)CC1
// query Determine, for I and II , which has the greater value of IC50. Write down the label attached to your selection.
// result I

* * *

target: SIK3 kinase (aa59-365, Thermo Fisher) (Homo sapiens, UniProt Q9Y2K2); construct: SIK3 kinase (aa59-365, Thermo Fisher); purchased Thermo Fisher; assay: Biochemical activities determination for SIK3 protein (TR-FRET); conditions: 125 uM ATP, 0.5 μM STK1 substrate
Sequence (Q9Y2K2 59-365): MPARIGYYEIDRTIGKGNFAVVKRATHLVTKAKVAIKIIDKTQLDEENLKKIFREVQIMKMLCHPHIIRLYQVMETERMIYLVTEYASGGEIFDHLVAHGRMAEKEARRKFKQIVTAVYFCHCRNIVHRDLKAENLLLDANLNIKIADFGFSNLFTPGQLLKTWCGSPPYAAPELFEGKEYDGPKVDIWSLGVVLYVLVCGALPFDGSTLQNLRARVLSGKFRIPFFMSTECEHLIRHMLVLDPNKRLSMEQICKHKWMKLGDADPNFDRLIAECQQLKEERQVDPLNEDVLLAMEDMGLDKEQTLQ
recorded endpoint: IC50 (nM)

Worked cases, answers included:
- compound: "COc1cc(-c2coc3cc(-c4cnn(C)c4)cc(F)c23)cc2c1C(=O)N(CC(F)(F)F)CC2"
  readout number: 155
- compound: "CC(C)Oc1cc(-c2coc3cc(OCCN4CCCC4)ccc23)cc(OC(F)F)c1C(=O)NC1CC1"
  readout number: 2540
- compound: "COc1cc(-c2coc3cc(OCCN4CCOCC4)ccc23)cc(OC(F)F)c1C(=O)N[C@@H]1C[C@@H]1F"
  readout number: 45
- compound: "CN1CC(n2cc(-c3ccc4c(-c5cc6c(c(OC(F)F)c5)C(=O)N(CC(F)(F)F)CC6)coc4c3)cn2)C1"
  readout number: 45
- compound: "NC1CC(Oc2cc(-c3coc4cc(OCCN5CCCC5)ccc34)cc(OC(F)F)c2C(=O)NC2CC2)C1 (centres unmarked)"
  readout number: 2520
- compound: "COc1cc(-c2coc3cc(OCCCN4CCCCC4)ccc23)cc(OC(F)F)c1C(=O)N[C@@H]1C[C@@H]1F"
  readout number: 44

[1] COc1cc(-c2coc3cc(-c4cnn(C)c4)ccc23)cc2c1C(=O)N(CC(F)(F)F)[C@H](C)C2 [Compound 29B]
[2] COc1cc(-c2coc3cc(OC(C)CN4CCCC4)ccc23)cc(OC(F)F)c1C(=O)N[C@@H]1C[C@@H]1F (some centres unmarked)
[3] COc1cc(-c2coc3cc(-c4cnn(C5CCOC5)c4)ccc23)cc2c1C(=O)N(CC(F)(F)F)CC2 (centres unmarked)
// query # ascending order, key=IC50 List the labels in the requested order.
// result 3, 2, 1

[1] Cn1cc(-c2ccc3c(-c4cc5c(c(OC(F)F)c4)C(=O)N(CC(F)(F)F)CC5)coc3c2)cn1
[2] COc1cc(-c2coc3cc(-c4cnn(C)c4)ccc23)cc2c1C(=O)N(CC(F)(F)F)CCO2
[3] O=C1c2c(cc(-c3coc4cc(-c5cnn(C6CCOC6)c5)ccc34)cc2OC(F)F)CCN1CC(F)(F)F (centres unmarked)
[4] COc1cc(-c2coc3cc(OCCN4CCCC4)ccc23)cc(OC(F)F)c1C(=O)NC1CC1(F)F (centres unmarked)
[5] COc1cc(-c2coc3cc(-c4cn(C)nc4F)ccc23)cc2c1C(=O)N(CC(F)(F)F)CC2
// query Hello, I need these entries ordered by IC50, highest reading first. Thanks! List the labels in the requested order.
// result 2, 5, 4, 1, 3
(2: 281 nM, 5: 127 nM, 4: 80 nM, 1: 54 nM, 3: 31 nM)

* * *

target: SIK1 kinase (aa1-303, Thermo Fisher) (Homo sapiens); construct: SIK1 kinase (aa1-303, Thermo Fisher); purchased Thermo Fisher; experiment: Biochemical activities determination for SIK1 protein (TR-FRET); conditions: 110 uM ATP, 0.5 μM STK1 substrate
recorded endpoint: IC50 (nM)

[1] O=C(NC1CC1)c1c(OC(F)F)cc(-c2coc3cc(OCCN4CCCC4)ccc23)cc1OC(F)F
[2] Cn1cc(-c2ccc3c(-c4cc5c(c(OC(F)F)c4)C(=O)N(CC(N)=O)CC5)coc3c2)cn1
// query Identify the item whose IC50 is the smaller number: 1 or 2 Write down the label attached to your selection.
// result 2

* * *

biological target: SIK2 kinase (full length, Thermo Fisher) (Homo sapiens); construct: SIK2 kinase (full length, Thermo Fisher); purchased Thermo Fisher; assay: Biochemical activities determination for SIK2 protein (TR-FRET); settings: 80 uM ATP, 0.5 μM substrate
Sequence (Q9H0K1 whole entry): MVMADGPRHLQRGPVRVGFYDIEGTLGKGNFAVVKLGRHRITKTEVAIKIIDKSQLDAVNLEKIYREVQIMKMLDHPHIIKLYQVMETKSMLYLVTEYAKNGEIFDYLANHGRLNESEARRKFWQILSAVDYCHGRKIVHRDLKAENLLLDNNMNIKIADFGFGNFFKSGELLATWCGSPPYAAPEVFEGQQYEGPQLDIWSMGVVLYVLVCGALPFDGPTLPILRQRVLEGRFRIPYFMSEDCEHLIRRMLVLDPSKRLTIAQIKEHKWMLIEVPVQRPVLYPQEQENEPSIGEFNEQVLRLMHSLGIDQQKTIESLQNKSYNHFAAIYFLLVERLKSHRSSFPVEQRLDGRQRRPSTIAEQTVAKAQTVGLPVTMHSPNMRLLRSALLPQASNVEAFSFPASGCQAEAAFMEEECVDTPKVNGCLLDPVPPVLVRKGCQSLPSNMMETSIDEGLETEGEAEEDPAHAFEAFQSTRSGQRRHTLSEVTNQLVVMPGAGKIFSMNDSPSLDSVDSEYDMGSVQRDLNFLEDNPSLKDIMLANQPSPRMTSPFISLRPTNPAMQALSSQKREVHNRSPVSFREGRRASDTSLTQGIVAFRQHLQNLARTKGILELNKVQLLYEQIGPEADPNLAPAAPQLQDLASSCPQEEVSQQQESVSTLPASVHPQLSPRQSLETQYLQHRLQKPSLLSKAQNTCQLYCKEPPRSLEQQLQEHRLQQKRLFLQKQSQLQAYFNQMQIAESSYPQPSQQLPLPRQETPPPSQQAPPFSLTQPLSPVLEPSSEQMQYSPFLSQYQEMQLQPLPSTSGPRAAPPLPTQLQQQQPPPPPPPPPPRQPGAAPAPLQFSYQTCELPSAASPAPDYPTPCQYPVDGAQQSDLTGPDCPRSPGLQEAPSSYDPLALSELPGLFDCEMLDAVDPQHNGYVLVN
recorded endpoint: IC50 (nM)

- chemical structure: "COc1cc(-c2coc3cc(OCCN4CCC(C)(C)C4)ccc23)cc(OC(F)F)c1C(=O)N[C@@H]1C[C@@H]1F"
  recorded endpoint: "IC50"
  readout number: 30
- chemical structure: "CN1CC[C@H](COc2cc(-c3coc4cc(OCCN5CCCC5)ccc34)cc(OC(F)F)c2C(=O)NC2CC2)C1"
  recorded endpoint: "IC50"
  readout number: 1120

[1] COc1cc(-c2coc3cc(OCCN4CC[C@@H](OC)C4)ccc23)cc(OC(F)F)c1C(=O)N[C@@H]1C[C@@H]1F
[2] CN1CCC[C@@H]1COc1cc(-c2coc3cc(OCCN4CCCC4)ccc23)cc(OC(F)F)c1C(=O)NC1CC1
// query Determine, for 1 and 2 , which has the greater value of IC50. Write down the label attached to your selection.
// result 2
(2: 5610 nM, 1: 19 nM)
